B1: library; a variant is named by its letters at N, in order (parent)
chain: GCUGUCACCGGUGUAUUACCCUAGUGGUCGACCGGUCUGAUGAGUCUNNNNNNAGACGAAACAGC

Variants of: B1
assay: normalized RNA/DNA level with ligand (relative to sTRSVctl = 100) (log10 (% of sTRSVctl)); ligand: hypoxanthine (xanthine aptamer); higher = less ribozyme self-cleavage, higher mRNA level
conditions: ligand concentration (+) RNA-Seq: 5 mM, HEK293T, reporter: mCherry (pCS4076), ligand present: yes
observed property: normalized RNA/DNA level with ligand (log10)
Answer field: number only, no words.

See these solved cases before continuing.
In [3]: df
Out[3]:
   mutation_name  data_value
0         UCGCUC        1.98
1         UAUAUU        1.91
2         CCGAGA        1.87
3         UGCCAU        1.91

Query: Give the measured normalized RNA/DNA level with ligand (log10) of GGGACA .
Response: 1.94

Query: Recorded normalized RNA/DNA level with ligand (log10) of CCAGCG , please.
Response: 1.92

Query: Return reported normalized RNA/DNA level with ligand (log10); argument: UCAAAA
Response: 1.93

Query: What does the data say about its normalized RNA/DNA level with ligand (log10)? Entry: ACAGAU
Response: 1.89

Query: Give the measured normalized RNA/DNA level with ligand (log10) of GCAUAA .
Response: 1.92

Query: What value of normalized RNA/DNA level with ligand (log10) has been reported for the following variant? AAUUUA
Response: 1.93
